# target or system: T1, MET928 (cMET protein derived from construct 25-928) (human, UniProt P08581 25-928)
# T1 construct: MET ectodomain, residues 1-24 are the leader; produced in Lec 8 cells; background text says the ectodomain is furin-cleaved into alpha (25-307) and beta chains; biotinylated form used in selections; also called MET928 extracellular domain; Met extracellular domain
# T1 sequence (P08581 25-928): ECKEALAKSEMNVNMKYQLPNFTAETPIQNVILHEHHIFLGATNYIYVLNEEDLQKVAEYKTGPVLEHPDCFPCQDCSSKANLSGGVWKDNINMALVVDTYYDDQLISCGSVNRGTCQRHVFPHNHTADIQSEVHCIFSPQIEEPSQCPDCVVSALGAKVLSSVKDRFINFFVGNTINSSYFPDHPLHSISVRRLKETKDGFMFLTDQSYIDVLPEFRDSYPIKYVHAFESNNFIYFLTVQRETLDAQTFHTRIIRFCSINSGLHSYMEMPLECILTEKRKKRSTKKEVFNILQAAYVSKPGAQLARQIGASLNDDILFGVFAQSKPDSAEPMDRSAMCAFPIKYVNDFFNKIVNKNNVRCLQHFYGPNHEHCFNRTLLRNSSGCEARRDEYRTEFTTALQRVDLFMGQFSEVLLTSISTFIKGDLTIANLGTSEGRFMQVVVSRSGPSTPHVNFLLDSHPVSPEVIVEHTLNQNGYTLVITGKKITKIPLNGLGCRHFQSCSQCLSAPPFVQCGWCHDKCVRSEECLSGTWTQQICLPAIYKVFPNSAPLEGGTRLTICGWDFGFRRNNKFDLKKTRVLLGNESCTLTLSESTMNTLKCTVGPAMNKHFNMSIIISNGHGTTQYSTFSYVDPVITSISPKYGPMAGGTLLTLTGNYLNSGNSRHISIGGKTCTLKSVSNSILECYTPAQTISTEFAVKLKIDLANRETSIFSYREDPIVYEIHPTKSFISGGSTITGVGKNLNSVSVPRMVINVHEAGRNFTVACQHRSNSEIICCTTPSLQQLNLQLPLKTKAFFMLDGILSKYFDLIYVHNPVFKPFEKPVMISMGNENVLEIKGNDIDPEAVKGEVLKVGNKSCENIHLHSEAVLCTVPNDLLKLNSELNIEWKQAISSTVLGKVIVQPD
# measurement protocol: ELISA, soluble scFv
observable: binding result

>  <binder>
108_E8 (scFv, not shown: 6xHis/tri-FLAG tags) scFv: QMQLVQSGAEVKKPGAPVKVSCKVSGYTFTDYYMHWVQQAPGKGLEWMGLVDPEDGETIYAEKFQGRVTITADTSTDTAYMELSSLRSEDTAVYYCATDATTPYWWMQKWGQGTLVTVSSLEGGGGSGGGGSGGGASDIQMTQSPSSLSASVGDRVTITCQASQDISNYLNWYQQKPGRAPKVLIYDASNLETGVPSRFSGSGSGTEFTLTISNLRPDDFATYYCQQGDSFPLTFGGGTKVEIK

>  <reported value>
binds

$$$$
>  <binder>
111_C6 (scFv, not shown: 6xHis/tri-FLAG tags) scFv: QMQLVQSGAEVKKPGAPVKVSCKVSGYTFTDYYMHWVQQAPGKGLEWMGLVDPEDGETIYAEKFQGRVTITADTSTDTAYMELSSLRSEDTAVYYCATDATTPYWFPQHWGQGTLVTVSSLEGGGGSGGGGSGGGASDIQMTQSPSSLSASVGDRVTITCQASQDISNYLNWYQQKPGRAPKVLIYDASNLETGVPSRFSGSGSGTEFTLTISNLRPDDFATYYCQQGDSFPLTFGGGTKVEIK

>  <reported value>
binds

$$$$
>  <binder>
111_D8 (scFv, not shown: 6xHis/tri-FLAG tags) scFv: QMQLVQSGAEVKKPGAPVKVSCKVSGYTFTDYYMHWVQQAPGKGLEWMGLVDPEDGETIYAEKFQGRVTITADTSTDTAYMELSSLRSEDTAVYYCATDATTPYWGMSWWGQGTLVTVSSLEGGGGSGGGGSGGGASDIQMTQSPSSLSASVGDRVTITCQASQDISNYLNWYQQKPGRAPKVLIYDASNLETGVPSRFSGSGSGTEFTLTISNLRPDDFATYYCQQGDSFPLTFGGGTKVEIK

>  <reported value>
binds

$$$$
